These measurements were taken from the supplement of paper PMC10567573.

B1: SOAT1 (parent)
chain: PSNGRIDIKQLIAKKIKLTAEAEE

Variants of: B1
Assay: protein stability index of a GFP-peptide fusion (GPS, HEK-293T) (PSI 1-6); higher = more stable;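 further: lentivirally expressed fusions sorted by FACS into six bins by GFP to DsRed ratio, PSI derived from sequencing read proportions per bin multiplied by bin number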
Conditions: c terminus: a fixed tail appended
Hi, to clarify the labels: 1 covers protein stability index from 3 upward, -1 covers anything below 3.

Has PSNGRIMIKQLIAKKIKLTAEAEE [D7M] a recorded protein stability index greater than or equal to 3?
-1

Has PSNGRIDIKQLLAKKIKLTAEAEE [I12L] a recorded protein stability index greater than or equal to 3?
1

Has PSNGRIDIKQLIAKGIKLTAEAEE [K15G] a recorded protein stability index greater than or equal to 3?
1

Has PSNGRIDIKQLIAKKIKLTAEAES [E24S] a recorded protein stability index greater than or equal to 3?
-1

Has PSNGRIDIKQLIAKKIKLAAEAEE [T19A] a recorded protein stability index greater than or equal to 3?
1

Has PSNGRIDIKQLIAHKIKLTAEAEE [K14H] a recorded protein stability index greater than or equal to 3?
1

Has PSNGRIDDKQLIAKKIKLTAEAEE [I8D] a recorded protein stability index greater than or equal to 3?
1

Has PCNGRIDIKQLIAKKIKLTAEAEE [S2C] a recorded protein stability index greater than or equal to 3?
1

Has PSNGRIDSKQLIAKKIKLTAEAEE [I8S] a recorded protein stability index greater than or equal to 3?
1

Has PSNGRIDIKQLIAKKIKLTAEHEE [A22H] a recorded protein stability index greater than or equal to 3?
1

Has PSNGRIVIKQLIAKKIKLTAEAEE [D7V] a recorded protein stability index greater than or equal to 3?
-1

Has PSNGRIDIKQLEAKKIKLTAEAEE [I12E] a recorded protein stability index greater than or equal to 3?
1

Has PSNGRIDIKQLIAKKIKLTAYAEE [E21Y] a recorded protein stability index greater than or equal to 3?
-1

Has PSNGRIDIKQLIVKKIKLTAEAEE [A13V] a recorded protein stability index greater than or equal to 3?
-1

Has PSNGRIDIKQLIAKKIKLTAEKEE [A22K] a recorded protein stability index greater than or equal to 3?
1

Has PSNGRIDIKQLIAKKIKLTAEALE [E23L] a recorded protein stability index greater than or equal to 3?
-1

Has PSNGQIDIKQLIAKKIKLTAEAEE [R5Q] a recorded protein stability index greater than or equal to 3?
1

Has PSNGRIDIKTLIAKKIKLTAEAEE [Q10T] a recorded protein stability index greater than or equal to 3?
1

Has PSNGRIDIKQLHAKKIKLTAEAEE [I12H] a recorded protein stability index greater than or equal to 3?
1

Has PTNGRIDIKQLIAKKIKLTAEAEE [S2T] a recorded protein stability index greater than or equal to 3?
1

Has PSNGRIDIKQLIAKKIKLTAEATE [E23T] a recorded protein stability index greater than or equal to 3?
1

Has PYNGRIDIKQLIAKKIKLTAEAEE [S2Y] a recorded protein stability index greater than or equal to 3?
-1

Has PSNGRIDIKQIIAKKIKLTAEAEE [L11I] a recorded protein stability index greater than or equal to 3?
1

Has PSNGRIDIKQLIAKKIKRTAEAEE [L18R] a recorded protein stability index greater than or equal to 3?
1
